Just for reference, ChEMBL document CHEMBL3994675 is where these values come from.

# TEST: Inhibition of IMP1 (unknown origin) expressed in Escherichia coli BL21(DE3) at 100 uM using cefazolin as substrate preincubated for 3 to 60 mins followed by substrate addition by UV-Visible spectrophotometric method
# TEST PARAMETERS: TDE = time-dependent effect
REPORTED METRIC: inhibition

In the examples that follow, each entry is paired with its recorded inhibition.
| COMPOUND STRING | inhibition |
| --- | --- |
| O=C([O-])CSCC(=O)Nc1cccc(Cl)c1.[K+] | Tde |
| CC(C)(C)NC(=O)CSCC(=O)[O-].[K+] | Tde |
| Cc1ccccc1NC(=O)CSCC(=O)[O-].[K+] | Tde |
| CCc1ccccc1NC(=O)CSCC(=O)[O-].[K+] | Tde |
| Cc1ccc(NC(=O)CSCC(=O)[O-])cc1.[K+] | Tde |
| O=C([O-])CSCC(=O)Nc1ccc(Cl)cc1.[K+] | Tde |
| O=C([O-])CSCC(=O)Nc1ccccc1O.[K+] | Tde |
| O=C([O-])CSCC(=O)Nc1ccc(C(=O)O)cc1.[K+] | Tde |
| CCCCc1ccc(NC(=O)CSCC(=O)[O-])cc1.[K+] | Tde |
| CCCCNC(=O)CSCC(=O)[O-].[K+] | Tde |

I would be grateful if you could provide inhibition for each of the following entries.
1. O=C([O-])CSCC(=O)Nc1ccccc1.[K+]
2. O=C([O-])CSCC(=O)Nc1ccccc1Cl.[K+]

Tde
Tde

Consider the following items and state reported inhibition for each.
1. O=C([O-])CSCC(=O)Nc1ccc([N+](=O)[O-])cc1.[K+]
2. CC(C)CNC(=O)CSCC(=O)[O-].[K+]
3. O=C([O-])CSCC(=O)NCc1ccccc1.[K+]
4. O=C([O-])CSCC(=O)Nc1ccccc1[N+](=O)[O-].[K+]

["Tde", "Tde", "Tde", "Tde"]
